test system: lacZ reporter gene of the screening strains (CM191, CM242); experiment: S-Gal staining assay on solid medium; type: cell-based, Escherichia coli; details: screening strains on solid medium, drug-impregnated disks, PETG to suppress background
metric name: lacZ reporter gene expression (S-Gal, blue-colored rings)

[[record]]
item_smiles = "COC1=C(N)C(=O)c2nc(-c3nc(C(=O)O)c(C)c(-c4ccc(OC)c(OC)c4O)c3N)ccc2C1=O"
value = "induced"

[[record]]
item_smiles = "CO[C@@]12[C@H](COC(N)=O)C3=C(C(=O)C(C)=C(N)C3=O)N1C[C@@H]1N[C@@H]12"
value = "induced"

[[record]]
item_smiles = "CCn1cc(C(=O)O)c(=O)c2ccc(C)nc21"
value = "not expressed"

[[record]]
item_smiles = "COc1cc(Cc2cnc(N)nc2N)cc(OC)c1OC"
value = "not expressed"

